Settings: [M+Na]+; instrument: DT; single field, calibrated with ESI Low Concentration Tuning Mix (Agilent)
endpointName: collision cross section (N2) (Å²)

• O=c1ccn([C@H]2C[C@H](O)[C@@H](COP(=O)(O)OP(=O)(O)OP(=O)(O)O)O2)c(=O)[nH]1 [DEOXYURIDINE TRIPHOSPHATE] = 185.3

(a) O=c1ccn([C@H]2C[C@H](O)[C@@H](CO)O2)c(=O)[nH]1
(b) OC[C@H]1O[C@H](OC[C@H]2O[C@H](OC[C@H]3O[C@H](O[C@]4(CO)O[C@H](CO)[C@@H](O)[C@@H]4O)[C@H](O)[C@@H](O)[C@@H]3O)[C@H](O)[C@@H](O)[C@H]2O)[C@H](O)[C@@H](O)[C@H]1O
Q: Select one. Lower collision cross section (N2): a or b Lab log: write the label of the selected item as the result.
Result: a
(a: 156.4 Å², b: 235.1 Å²)

----------
Conditions: [M+H]+; instrument: DT; single field, calibrated with ESI Low Concentration Tuning Mix (Agilent)
endpointName: collision cross section (N2) (Å²)

(A) O=C(O)Cc1c[nH]c2ccccc12 [INDOLE-3-ACETATE]
(B) CC(=O)N[C@H]1[C@H](OP(=O)(O)OP(=O)(O)OC[C@H]2O[C@@H](n3ccc(=O)[nH]c3=O)[C@H](O)[C@@H]2O)O[C@H](CO)[C@@H](O)[C@@H]1O [URIDINE DIPHOSPHATE-N-ACETYLGLUCOSAMINE]
Q: # query: argmin of collision cross section (N2) over A and B Your answer should be the label attached to the chosen record.
Result: A
(A: 135.9 Å², B: 210.5 Å²)

----------
Details: [M+H]+; instrument: TW; calibrated with polyalanine and drug standards
endpointName: collision cross section (N2) (Å²)

Some solved cases for reference:
- CCCn1cnc2c1c(=O)n(CCCCC(C)=O)c(=O)n2C: 168.3
- CC(=O)O[C@H]1CC[C@@]2(C)C(C[C@@H](OC(C)=O)[C@]3(C)C2CC[C@@]2(C)[C@H](c4ccoc4)OC(=O)[C@H]4O[C@]423)C1(C)C (stereo partly drawn) [3beta-ACETOXYDEOXODIHYDROGEDUNIN]: 219.2
- COC(=O)[C@H](Cc1ccccc1)NC(=O)[C@@H](N)CC(=O)O: 167.6
- OC[C@@H](O)[C@H]1O[C@@H]2O[C@H](C(Cl)(Cl)Cl)O[C@@H]2[C@H]1O: 163.2
- CC(=O)O[C@H]1C[C@H](O[C@H]2[C@@H](O)C[C@H](O[C@H]3[C@@H](O)C[C@H](O[C@H]4CC[C@@]5(C)[C@H](CC[C@@H]6[C@@H]5C[C@@H](O)[C@]5(C)[C@@H](C7=CC(=O)OC7)CC[C@]65O)C4)O[C@@H]3C)O[C@@H]2C)O[C@H](C)[C@H]1O[C@@H]1O[C@H](CO)[C@@H](O)[C@H](O)[C@H]1O [LANATOSIDE C]: 289.4
- COC(=O)C[C@H]1C(C)(C)[C@H](OC(C)=O)[C@@H]2CC3=C4CC(=O)O[C@@H](c5ccoc5)[C@]4(C)CC[C@@H]3C1(C)C2=O [FISSINOLIDE]: 213.3
- COc1ccc(-c2oc3c(CC=C(C)C)c(O[C@@H]4O[C@H](CO)[C@@H](O)[C@H](O)[C@H]4O)cc(O)c3c(=O)c2O[C@@H]2O[C@@H](C)[C@H](O)[C@@H](O)[C@H]2O)cc1: 260.8
- CCc1nc(N)nc(N)c1-c1ccc(Cl)cc1: 155.8

(A) COc1cc(O)c(C(=O)/C=C/c2ccc(OC)c(O)c2)c(OC)c1 [2',3-DIHYDROXY-4,4',6'-TRIMETHOXYCHALCONE]
(B) Nc1[nH]c(=O)ncc1F
Q: Quick one: lower collision cross section (N2), A or B ? Pick one and reply with its label.
Result: B
(B: 118.4 Å², A: 177.1 Å²)

Hello, the source for this data is the C3SDB collision cross section collection, in case you need it.
